src = patent US20260209316A1

- SYSTEM_NAME: T1, full-length Sudan GP (GPFL) (Sudan virus (SUDV), UniProt Q7T9D9 33-650)
- T1 construct: also called Sudan GPFL; GP(S)FL
- T1 sequence: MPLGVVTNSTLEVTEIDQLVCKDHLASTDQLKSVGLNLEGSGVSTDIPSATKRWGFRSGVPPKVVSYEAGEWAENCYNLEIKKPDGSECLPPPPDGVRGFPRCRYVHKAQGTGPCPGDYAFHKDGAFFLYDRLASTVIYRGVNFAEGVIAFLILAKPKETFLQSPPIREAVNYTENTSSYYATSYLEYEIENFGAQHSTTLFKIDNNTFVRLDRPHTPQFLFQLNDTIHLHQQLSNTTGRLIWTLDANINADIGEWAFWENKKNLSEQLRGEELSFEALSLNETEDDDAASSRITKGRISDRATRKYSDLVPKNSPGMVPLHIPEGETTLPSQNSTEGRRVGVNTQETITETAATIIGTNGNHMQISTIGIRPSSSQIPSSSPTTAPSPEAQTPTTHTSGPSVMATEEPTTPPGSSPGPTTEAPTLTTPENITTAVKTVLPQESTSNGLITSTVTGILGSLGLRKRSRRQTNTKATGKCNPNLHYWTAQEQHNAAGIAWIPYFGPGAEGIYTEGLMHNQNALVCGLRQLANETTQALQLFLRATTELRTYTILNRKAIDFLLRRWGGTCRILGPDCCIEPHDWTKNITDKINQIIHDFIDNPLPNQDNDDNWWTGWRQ
- EXPERIMENT_NOTES: BLI, Fab, pH 5.3
pKd: −log10 of the molar value.

# BINDER, pKd
records = [
    ("Fab generated from 365S (Fab, V domains shown, also called 365S Fab) VH: EVQLVESGGGLVQPGGSLRLSCAASGLTFSAYEMNWVRQAPGKGLEWVSHITTSGSAIYYADSVKGRFTISRDNAKNSLHLQMNRLRADDTAVYFCARDSTIVQCSGTSCHVSTYSYMDVWGKGTTVTVSS VL: EIVLTQSPATLSLSPGERATLSCRASQSVTTYLAWYQHKPGQAPRLLIYDASKRATGIPARFSGSGSGTDFTLTISSLEPEDFAVYHCQQRSSWPPITFGQGTRLEIK", 7.24),
    ("Fab generated from 382S (Fab, V domains shown, also called 382S Fab) VH: QVQLVQSGAEVKKPGSSVKVSCKASGGTFSNYGISWVRQAPGQGLEWMGRNIPIIGIANYAQKFQDRVTITADKSTSTVFMELRSLRYEDTAVYYCARDPLAARRGNWFDPWGQGTLVTVSS VL: DIQMTQSPSTLSASVGDRVTITCRASQSVSSWLAWYQQKPGKAPKLLIYDASTLQSGVPSRFSGSGSGTEFTLTISSLQPDDFATYYCQQYNSYSYTFGQGTKLEIK", 7.50),
]
